Overview of reported IC50 across a group of compounds:
Tested on: A2780
Experiment: MTT antiproliferative assay
Format: cell-based, human
Settings: Homo sapiens, A2780; read-out: IC50 Value (μM) ± SEM
# number only, unit µM dropped from output

>>> reported_measurement("COc1ccccc1[P+](CCCCOc1cc(O)c2c(=O)cc(-c3ccccc3)oc2c1)(c1ccccc1)c1ccccc1")
0.66

Please look at the following compound next.
input: Query IC50 for `CC(C)(C)[P+](CCCCOc1cc(O)c2c(=O)cc(-c3ccccc3)oc2c1)(c1ccccc1)c1ccccc1`
output: 1.37

###

Test system: Colon Cancer panel
Under this convention, yes denotes GI50 strictly below 600 nM and no denotes GI50 at or above 600 nM.

>>> class("COc1ccc([P+](CCCCOc2cc(O)c3c(=O)cc(-c4ccccc4)oc3c2)(c2ccc(OC)cc2)c2ccc(OC)cc2)cc1 [3c]")
"no"
>>> class("O=c1cc(-c2ccccc2)oc2cc(OCCCC[P+](c3ccccc3)(c3ccccc3)c3ccccn3)cc(O)c12 [3h]")
"no"
>>> class("Cc1ccc([P+](CCCCOc2cc(O)c3c(=O)cc(-c4ccccc4)oc3c2)(c2ccc(C)cc2)c2ccc(C)cc2)cc1 [3b]")
"yes"
>>> class("O=c1cc(-c2ccccc2)oc2cc(OCCCC[P+](C3CCCCC3)(C3CCCCC3)C3CCCCC3)cc(O)c12 [3e]")
"no"
>>> class("COc1c(C)cc([P+](CCCCOc2cc(O)c3c(=O)cc(-c4ccccc4)oc3c2)(c2cc(C)c(OC)c(C)c2)c2cc(C)c(OC)c(C)c2)cc1C [3f]")
"yes"

input: Please state whether GI50 is below 600 nM for O=c1cc(-c2ccccc2)oc2cc(OCCCC[P+](c3ccc(F)cc3)(c3ccc(F)cc3)c3ccc(F)cc3)cc(O)c12 [3d]
output: no

input: Please state whether GI50 is below 600 nM for Cc1ccccc1[P+](CCCCOc1cc(O)c2c(=O)cc(-c3ccccc3)oc2c1)(c1ccccc1C)c1ccccc1C [3g]
output: yes

input: Please state whether GI50 is below 600 nM for O=c1cc(-c2ccccc2)oc2cc(OCCCC[P+](c3ccccc3)(c3ccccc3)c3ccccc3)cc(O)c12 [3a]
output: no

###

System: K-562
Assay: NCI60 five-dose screen
Format: cell-based
Settings: Homo sapiens, K562; K-562, Leukemia
Measured endpoint: GI50 (nM)
# number only, unit nM dropped from output

>>> reported_measurement("Cc1ccccc1[P+](CCCCOc1cc(O)c2c(=O)cc(-c3ccccc3)oc2c1)(c1ccccc1C)c1ccccc1C")
279

input: Query GI50 for `O=c1cc(-c2ccccc2)oc2cc(OCCCC[P+](C3CCCCC3)(C3CCCCC3)C3CCCCC3)cc(O)c12`
output: 402

input: Query GI50 for `O=c1cc(-c2ccccc2)oc2cc(OCCCC[P+](c3ccccc3)(c3ccccc3)c3ccccc3)cc(O)c12`
output: 216

input: Query GI50 for `COc1c(C)cc([P+](CCCCOc2cc(O)c3c(=O)cc(-c4ccccc4)oc3c2)(c2cc(C)c(OC)c(C)c2)c2cc(C)c(OC)c(C)c2)cc1C`
output: 34

input: Query GI50 for `COc1ccc([P+](CCCCOc2cc(O)c3c(=O)cc(-c4ccccc4)oc3c2)(c2ccc(OC)cc2)c2ccc(OC)cc2)cc1`
output: 376

input: Query GI50 for `O=c1cc(-c2ccccc2)oc2cc(OCCCC[P+](c3ccc(F)cc3)(c3ccc(F)cc3)c3ccc(F)cc3)cc(O)c12`
output: 1400

input: Query GI50 for `O=c1cc(-c2ccccc2)oc2cc(OCCCC[P+](c3ccccc3)(c3ccccc3)c3ccccn3)cc(O)c12`
output: 189

input: Query GI50 for `Cc1ccc([P+](CCCCOc2cc(O)c3c(=O)cc(-c4ccccc4)oc3c2)(c2ccc(C)cc2)c2ccc(C)cc2)cc1`
output: 137

###

System: PC-3
Assay: NCI60 five-dose screen
Format: cell-based
Conditions: Homo sapiens; PC-3, Prostate Cancer
Measured endpoint: GI50

Consider the worked cases shown below.
>>> reported_measurement("Cc1ccc([P+](CCCCOc2cc(O)c3c(=O)cc(-c4ccccc4)oc3c2)(c2ccc(C)cc2)c2ccc(C)cc2)cc1 [3b]")
"182 nM"
>>> reported_measurement("Cc1ccccc1[P+](CCCCOc1cc(O)c2c(=O)cc(-c3ccccc3)oc2c1)(c1ccccc1C)c1ccccc1C [3g]")
"308 nM"
>>> reported_measurement("O=c1cc(-c2ccccc2)oc2cc(OCCCC[P+](c3ccccc3)(c3ccccc3)c3ccccc3)cc(O)c12 [3a]")
"305 nM"
>>> reported_measurement("COc1c(C)cc([P+](CCCCOc2cc(O)c3c(=O)cc(-c4ccccc4)oc3c2)(c2cc(C)c(OC)c(C)c2)c2cc(C)c(OC)c(C)c2)cc1C [3f]")
"276 nM"
>>> reported_measurement("O=c1cc(-c2ccccc2)oc2cc(OCCCC[P+](c3ccccc3)(c3ccccc3)c3ccccn3)cc(O)c12 [3h]")
"572 nM"

input: Query GI50 for COc1ccc([P+](CCCCOc2cc(O)c3c(=O)cc(-c4ccccc4)oc3c2)(c2ccc(OC)cc2)c2ccc(OC)cc2)cc1 [3c]
output: 320 nM

input: Query GI50 for O=c1cc(-c2ccccc2)oc2cc(OCCCC[P+](c3ccc(F)cc3)(c3ccc(F)cc3)c3ccc(F)cc3)cc(O)c12 [3d]
output: 1760 nM

input: Query GI50 for O=c1cc(-c2ccccc2)oc2cc(OCCCC[P+](C3CCCCC3)(C3CCCCC3)C3CCCCC3)cc(O)c12 [3e]
output: 501 nM

###

So I've got GI50 readings for IGROV1, take a look.
# number only, unit µM dropped from output

input: Query GI50 for O=c1cc(-c2ccccc2)oc2cc(OCCCC[P+](C3CCCCC3)(C3CCCCC3)C3CCCCC3)cc(O)c12 [3e]
output: 0.774

input: Query GI50 for O=c1cc(-c2ccccc2)oc2cc(OCCCC[P+](c3ccc(F)cc3)(c3ccc(F)cc3)c3ccc(F)cc3)cc(O)c12 [3d]
output: 1.89

input: Query GI50 for COc1c(C)cc([P+](CCCCOc2cc(O)c3c(=O)cc(-c4ccccc4)oc3c2)(c2cc(C)c(OC)c(C)c2)c2cc(C)c(OC)c(C)c2)cc1C [3f]
output: 0.346

input: Query GI50 for O=c1cc(-c2ccccc2)oc2cc(OCCCC[P+](c3ccccc3)(c3ccccc3)c3ccccc3)cc(O)c12 [3a]
output: 0.405

input: Query GI50 for COc1ccc([P+](CCCCOc2cc(O)c3c(=O)cc(-c4ccccc4)oc3c2)(c2ccc(OC)cc2)c2ccc(OC)cc2)cc1 [3c]
output: 0.413

input: Query GI50 for Cc1ccccc1[P+](CCCCOc1cc(O)c2c(=O)cc(-c3ccccc3)oc2c1)(c1ccccc1C)c1ccccc1C [3g]
output: 0.428

input: Query GI50 for Cc1ccc([P+](CCCCOc2cc(O)c3c(=O)cc(-c4ccccc4)oc3c2)(c2ccc(C)cc2)c2ccc(C)cc2)cc1 [3b]
output: 0.416

input: Query GI50 for O=c1cc(-c2ccccc2)oc2cc(OCCCC[P+](c3ccccc3)(c3ccccc3)c3ccccn3)cc(O)c12 [3h]
output: 0.653

###

Overview of reported Growth percent across a group of compounds:
Tested on: T-47D
Experiment: NCI60 one-dose screen
Format: cell-based, human
Conditions: 10 μM
Method: The screening results are presented in the Supplementary Materials (Table S1), where the cytotoxicity was determined for the 10 µM concentration. […] The negative numbers indicate significant decreases in the cell number. […] Following drug addition, the plates were incubated at 37 °C, 5% carbon dioxide, 95% air, and 100% relative humidity for an additional 48 hours. […] Growth inhibition (%) was calculated as: […]
# number only, unit % dropped from output

Consider the worked cases shown below.
>>> reported_measurement("O=c1cc(-c2ccccc2)oc2cc(OCCCC[P+](c3ccccc3)(c3ccccc3)c3ccccc3)cc(O)c12")
"−62.52"
>>> reported_measurement("Cc1ccc([P+](CCCCOc2cc(O)c3c(=O)cc(-c4ccccc4)oc3c2)(c2ccc(C)cc2)c2ccc(C)cc2)cc1")
"−52.52"
>>> reported_measurement("O=c1cc(-c2ccccc2)oc2cc(OCCCC[P+](c3ccc(F)cc3)(c3ccc(F)cc3)c3ccc(F)cc3)cc(O)c12")
"−53.27"

input: Query Growth percent for `COc1c(C)cc([P+](CCCCOc2cc(O)c3c(=O)cc(-c4ccccc4)oc3c2)(c2cc(C)c(OC)c(C)c2)c2cc(C)c(OC)c(C)c2)cc1C`
output: −52.77

input: Query Growth percent for `O=c1cc(-c2ccccc2)oc2cc(OCCCC[P+](c3ccccc3)(c3ccccc3)c3ccccn3)cc(O)c12`
output: −49.47

input: Query Growth percent for O=c1cc(-c2ccccc2)oc2cc(O)cc(O)c12 [compound 2, 5,7-dihydroxyflavone, reference compound]
output: 101.44
